Source of measurements: paper PMC5681660

- System Name: human NTCP (Homo sapiens)
- Sequence (Q14973 1-349): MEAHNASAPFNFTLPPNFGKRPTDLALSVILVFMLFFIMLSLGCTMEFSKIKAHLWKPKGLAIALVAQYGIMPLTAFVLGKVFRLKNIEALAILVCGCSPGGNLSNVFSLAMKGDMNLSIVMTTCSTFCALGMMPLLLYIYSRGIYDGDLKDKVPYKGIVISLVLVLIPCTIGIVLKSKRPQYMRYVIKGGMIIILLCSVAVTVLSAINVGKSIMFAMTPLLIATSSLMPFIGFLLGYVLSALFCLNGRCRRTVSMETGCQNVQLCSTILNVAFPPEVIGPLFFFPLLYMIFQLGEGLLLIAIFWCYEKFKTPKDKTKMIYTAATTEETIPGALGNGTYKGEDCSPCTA
- Run Description: Screening taurocholate uptake assay (96-well, [14C]taurocholate, 10 µM drug)
- Condition Set: combined ranking from functional and binding screening assays
Where a name gives a salt, the structure may show the parent alone.
Please use rule met for Ranking score under 400 and rule not met for everything else, ties included.

{"columns": ["Compound", "Label Class"],
 "data": [
  ["C/C=C(/C(=C/C)c1ccc(O)cc1)c1ccc(O)cc1", "rule not met"],
  ["Clc1ccc(C(c2ccccc2Cl)C(Cl)Cl)cc1 (centres unmarked)", "rule met"],
  ["Nc1ccc(S(N)(=O)=O)cc1 [Sulfanilamide]", "rule met"],
  ["CC1(C)OC(=O)NC1=O", "rule met"],
  ["CC(=O)[C@H]1CC[C@H]2[C@@H]3CC=C4C[C@@H](O)CC[C@]4(C)[C@H]3CC[C@]12C", "rule met"],
  ["Clc1ccc2nsnc2c1NC1=NCCN1 [Tizanidine HCl]", "rule met"],
  ["CN(C)CCC=C1c2ccccc2COc2ccccc21 [Doxepin hydrochloride]", "rule met"],
  ["CN1C[C@H](C(=O)N[C@]2(C)O[C@@]3(O)[C@@H]4CCCN4C(=O)[C@H](Cc4ccccc4)N3C2=O)C[C@@H]2c3cccc4[nH]cc(c34)C[C@H]21.CN1C[C@H](C(=O)N[C@]2(C)O[C@@]3(O)[C@@H]4CCCN4C(=O)[C@H](Cc4ccccc4)N3C2=O)C[C@@H]2c3cccc4[nH]cc(c34)C[C@H]21.O=C(O)C(O)C(O)C(=O)O [Dihydroergotamine tartrate]", "rule met"],
  ["C[N+]1(C)[C@@H]2CC[C@H]1C[C@@H](OC(=O)C(CO)c1ccccc1)C2 (some centres unmarked) [Methylatropine nitrate]", "rule met"],
  ["Nc1nc(=S)c2ncn([C@@H]3O[C@H](CO)[C@@H](O)[C@H]3O)c2[nH]1", "rule met"],
  ["CSc1ccc2c(c1)C(N1CCN(C)CC1)Cc1ccccc1S2.O=C(O)/C=C\\C(=O)O (centres unmarked) [Methiothepin maleate]", "rule not met"],
  ["O=P1(NCCCl)OCCCN1CCCl (centres unmarked) [Ifosfamide]", "rule met"],
  ["S=c1[nH]cnc2nc[nH]c12", "rule not met"],
  ["Brc1c(NC2=NCCN2)ccc2nccnc12.O=C(O)C(O)C(O)C(=O)O [Brimondine L-Tartrate]", "rule met"],
  ["CC(C)/N=c1\\cc2n(-c3ccc(Cl)cc3)c3ccccc3nc-2cc1Nc1ccc(Cl)cc1", "rule not met"],
  ["N=C(N)NC(=O)c1nc(Cl)c(N)nc1N [Amiloride hydrochloride dihydrate]", "rule not met"],
  ["COc1cc(-c2ccc(=O)[nH]n2)ccc1OC(F)F", "rule met"],
  ["C[N+](C)(C)CCCCCCCCCC[N+](C)(C)C [Decamethonium bromide]", "rule not met"],
  ["CC(C)OC(=O)CCC/C=C\\C[C@@H]1[C@@H](CC[C@@H](O)CCc2ccccc2)[C@H](O)C[C@@H]1O", "rule met"],
  ["CC(=O)Oc1cc(C(F)(F)F)ccc1C(=O)O", "rule not met"],
  ["COc1ccc([C@@H]2Sc3ccccc3N(CCN(C)C)C(=O)[C@@H]2OC(C)=O)cc1 [Diltiazem hydrochloride]", "rule met"],
  ["Cc1cc(C(C)(C)C)cc(C)c1CC1=NCCN1 [Xylometazoline hydrochloride]", "rule met"],
  ["CCc1c(C)[nH]c2c1C(=O)C(CN1CCOCC1)CC2 (centres unmarked) [Molindone hydrochloride]", "rule not met"],
  ["CCN[C@H]1C[C@H](C)S(=O)(=O)c2sc(S(N)(=O)=O)cc21 [Dorzolamide hydrochloride]", "rule met"],
  ["N[C@@H](C(=O)N[C@@H]1C(=O)N2C(C(=O)O)=C(Cl)CS[C@H]12)c1ccccc1.O [Cefaclor hydrate]", "rule met"],
  ["CCOC(=O)C1=C[C@]2(CC)CCCN3CCc4c(n1c1ccccc41)[C@@H]32", "rule not met"],
  ["COc1ccccc1N1CCN(CC(O)COc2cccc3ccccc23)CC1.Cl.Cl (centres unmarked) [Naftopidil dihydrochloride]", "rule not met"],
  ["COc1cc([C@@H]2c3cc4c(cc3[C@@H](O[C@@H]3O[C@@H]5CO[C@@H](C)O[C@H]5[C@H](O)[C@H]3O)[C@H]3COC(=O)[C@H]23)OCO4)cc(OC)c1O [Etoposide]", "rule met"],
  ["CCN(CC)C(=O)/C(C#N)=C/c1cc(O)c(O)c([N+](=O)[O-])c1", "rule met"]
]}

---

- System Name: human NTCP (Homo sapiens)
- Run Description: Screening taurocholate uptake assay (96-well, [14C]taurocholate, 10 µM drug)
- Condition Set: Prestwick library screen, 10 µM drug; B-score of taurocholate uptake
Where a name gives a salt, the structure may show the parent alone. Starred links: 1 amine or outer side, 2 acyl side, 3 side chain; linkers in the order of their positions; H or OH if unused. Positions of bridges follow the written chain, without caps; N, C: chain ends. Non-standard residues stand in square brackets, D forms with d. Residues, ends and D or L forms follow the SMILES beside them. *: point of attachment. X1 = NC1=N[C@@H]([C@H](N[*:1])C(=O)[*:2])C[C@H](O)N1; ΔAla(Z-3-ureido) = NC(=O)N/C=C(\N)C(=O)O; β3hOrn = NCCC[C@H](N)CC(=O)*; Dap = NC[C@H](N)C(=O)O
Collected B-score functional assay values appear next to each entry.
Assay Endpoint: B-score functional assay

{"columns": ["Compound", "Reported"],
 "data": [
  ["CN(C)CCCSC(=N)N.Cl.Cl [Dimaprit dihydrochloride]", 0.472],
  ["Cn1c(=O)c2c(ncn2CC2OCCO2)n(C)c1=O [Doxofylline]", 3.316],
  ["CC(=O)OCC(=O)[C@H]1CC[C@H]2[C@@H]3CC[C@H]4C[C@H](O)CC[C@]4(C)[C@H]3C(=O)C[C@]12C [Alfadolone acetate]", 0.626],
  ["O=c1[nH]cnc2c1ncn2[C@H]1CC[C@@H](CO)O1 [Didanosine]", 0.086],
  ["Cc1onc(-c2c(Cl)cccc2Cl)c1C(=O)N[C@@H]1C(=O)N2[C@@H]1SC(C)(C)[C@@H]2C(=O)[O-].O.[Na+] [Dicloxacillin sodium salt hydrate]", 0.63],
  ["NS(=O)(=O)Cc1noc2ccccc12 [Zonisamide]", 3.016],
  ["CN(c1nccc(=O)[nH]1)C1CCN(c2nc3ccccc3n2Cc2ccc(F)cc2)CC1 [Mizolastine]", 0.906],
  ["NC[C@H]1O[C@H](O[C@H]2[C@H](O[C@@H]3O[C@H](CO)[C@@H](O)[C@H]3O)[C@@H](O)[C@H](N)C[C@@H]2N)[C@H](N)[C@@H](O)[C@@H]1O.O=S(=O)(O)O [Ribostamycin sulfate salt]", 0.797],
  ["Cc1nc2n(c(=O)c1CCN1CCC(c3noc4cc(F)ccc34)CC1)CCCC2 [Risperidone]", 0.025],
  ["Nc1ncnc2c1ncn2[C@@H]1O[C@H](COP(=O)(O)O)[C@@H](O)[C@H]1O.O [Adenosine 5'-monophosphate monohydrate]", 0.641],
  ["CC(=O)c1ccc(S(=O)(=O)NC(=O)NC2CCCCC2)cc1 [Acetohexamide]", 0.057],
  ["O=C(O)c1cc(=O)c2c(OCC(O)COc3cccc4oc(C(=O)O)cc(=O)c34)cccc2o1 [Cromolyn disodium salt]", 0.688],
  ["NCCC[C@H](N)CC(=O)N[C@H]1CNC(=O)[C@H]([C@H]2C[C@H](O)NC(N)=N2)NC(=O)/C(=C/NC(N)=O)NC(=O)[C@H](CO)NC(=O)[C@H](CO)NC1=O.O=S(=O)(O)O [Viomycin sulfate] (β3hOrn-[Dap]SS[ΔAla(Z-3-ureido)][X1]; lactam 1-C)", 0.436],
  ["Clc1ccc(C(Cn2ccnc2)OCc2c(Cl)cccc2Cl)c(Cl)c1 (centres unmarked) [Isoconazole]", 0.797]
]}

---

- System Name: human NTCP (Homo sapiens, UniProt Q14973)
- Sequence (Q14973 1-349): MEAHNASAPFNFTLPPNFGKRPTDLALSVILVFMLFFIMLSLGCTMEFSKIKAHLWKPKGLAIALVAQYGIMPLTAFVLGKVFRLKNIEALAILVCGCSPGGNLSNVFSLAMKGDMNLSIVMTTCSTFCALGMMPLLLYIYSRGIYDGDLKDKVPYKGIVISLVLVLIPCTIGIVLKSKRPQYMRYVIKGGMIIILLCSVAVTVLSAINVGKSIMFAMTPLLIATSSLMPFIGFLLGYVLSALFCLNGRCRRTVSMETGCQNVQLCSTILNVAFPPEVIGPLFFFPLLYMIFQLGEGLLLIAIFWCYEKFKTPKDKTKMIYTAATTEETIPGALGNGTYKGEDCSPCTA
- Run Description: Screening taurocholate uptake assay (96-well, [14C]taurocholate, 10 µM drug)
- Condition Set: combined ranking from functional and binding assay B-scores
Where a name gives a salt, the structure may show the parent alone.
Tick Criterion met if Ranking score is 1000 or greater. Tick Criterion not met if Ranking score is less than 1000.

{"columns": ["Compound", "Label Class"],
 "data": [
  ["CN(C)CCC(c1ccc(Cl)cc1)c1ccccn1 (centres unmarked) [Chlorpheniramine maleate]", "Criterion met"],
  ["Cc1cnc(C(=O)O)c[n+]1[O-] [Acipimox]", "Criterion not met"],
  ["COC(=O)N/N=C/c1c[n+]([O-])c2ccccc2[n+]1[O-] [Carbadox]", "Criterion not met"],
  ["CN(C)CCOC1=Cc2ccccc2Sc2ccc(Cl)cc21 [Zotepine]", "Criterion not met"],
  ["Cc1onc(-c2ccccc2)c1C(=O)N[C@@H]1C(=O)N2[C@@H]1SC(C)(C)[C@@H]2C(=O)[O-].[Na+] [Oxacillin sodium]", "Criterion not met"],
  ["CN1CCOC(c2ccccc2)c2ccccc2C1 (centres unmarked) [Nefopam hydrochloride]", "Criterion not met"],
  ["CC(C)C(=O)c1c(C(C)C)nn2ccccc12 [Ibudilast]", "Criterion not met"],
  ["CCn1cc(C(=O)O)c(=O)c2cnc(N3CCCC3)nc21 [Piromidic acid]", "Criterion not met"],
  ["CN(C)[C@@H]1C(O)=C(C(N)=O)C(=O)[C@@]2(O)C(O)=C3C(=O)c4c(O)cccc4[C@@](C)(O)[C@H]3[C@H](O)[C@@H]12 [Oxytetracycline dihydrate]", "Criterion not met"],
  ["CC(C)C[C@H](CN)CC(=O)O [Pregabalin]", "Criterion not met"],
  ["Cc1cc2cc3c(C)cc(=O)oc3c(C)c2o1 [Trioxsalen]", "Criterion met"],
  ["CCOC(=O)C1=C(COCCN)NC(C)=C(C(=O)OC)C1c1ccccc1Cl (centres unmarked) [Amlodipine]", "Criterion met"],
  ["CC(C)(Sc1cc(C(C)(C)C)c(O)c(C(C)(C)C)c1)Sc1cc(C(C)(C)C)c(O)c(C(C)(C)C)c1 [Probucol]", "Criterion not met"]
]}
